# System: MDA-MB231 (Breast) human cancer cell line
# run conditions: MDA-MB231, 1 μM, three days
Square brackets hold non-standard residues; d marks the D form. Peptide text beside a SMILES is read from it. NMePhe(4-Br) = CN[C@@H](Cc1ccc(Br)cc1)C(=O)O; Phe(4-Br) = N[C@@H](Cc1ccc(Br)cc1)C(=O)O; NMeF = CN[C@@H](Cc1ccccc1)C(=O)O; NMeL = CN[C@@H](CC(C)C)C(=O)O; NMeV = CN[C@H](C(=O)O)C(C)C; Aib = CC(C)(N)C(=O)O
outcome measure: Fold Induction Over DMSO control
Output: the number by itself.

Solved entries (count: 3):
[
  {
    "compound": "CC(C)C[C@@H]1NC(=O)[C@H](Cc2ccccc2)NC(=O)[C@H](CC(C)C)NC(=O)[C@H](C(C)C)NC(=O)[C@H](CC(C)C)NC1=O [Compound 1, sansalvamide A peptide] (cyclo(FLLVL))",
    "Fold Induction Over DMSO control": 0.91
  },
  {
    "compound": "CC(C)C[C@@H]1NC(=O)[C@H](Cc2ccccc2)NC(=O)[C@H](CC(C)C)NC(=O)[C@H](C(C)C)N(C)C(=O)[C@H](CC(C)C)NC1=O [Compound 1f] (cyclo(FLL[NMeV]L))",
    "Fold Induction Over DMSO control": 1.04
  },
  {
    "compound": "CC(C)C[C@@H]1NC(=O)[C@H](Cc2ccc(Br)cc2)NC(=O)[C@H](CC(C)C)N(C)C(=O)[C@H](C(C)C)NC(=O)[C@H](CC(C)C)NC1=O [Compound 1i] (cyclo([Phe(4-Br)]LLV[NMeL]))",
    "Fold Induction Over DMSO control": 0.96
  }
]

Exercise: Look up Fold Induction Over DMSO control for this compound: CC(C)C[C@@H]1NC(=O)[C@H](Cc2ccccc2)NC(=O)[C@H](Cc2ccccc2)N(C)C(=O)[C@H](Cc2ccccc2)NC(=O)C(C)(C)NC(=O)[C@H](CC(C)C)N(C)C(=O)[C@@H]2CCCN2C1=O [Scytalidamide A, reference compound] (cyclo(F[NMeF]FLP[NMeL][Aib]))
Key: 2.75

Exercise: Would you mind doing CC(C)C[C@@H]1NC(=O)[C@H](CC(C)C)NC(=O)[C@H](Cc2ccc(Br)cc2)N(C)C(=O)[C@H](CC(C)C)NC(=O)[C@H](C(C)C)NC1=O [Compound 1k] (cyclo([NMePhe(4-Br)]LLVL)) as well?
Key: 3.17

----------
# Lookup of reported Fold Induction Over DMSO control keyed by entry
# System: MDA-MB231 (Breast) human cancer cell line
# run conditions: MDA-MB231, 10 μM, three days
Square brackets hold non-standard residues; d marks the D form. Peptide text beside a SMILES is read from it. Phe(4-Br) = N[C@@H](Cc1ccc(Br)cc1)C(=O)O; NMeF = CN[C@@H](Cc1ccccc1)C(=O)O; Hica(2S) = CC(C)C[C@H](O)C(=O)O; NMeL = CN[C@@H](CC(C)C)C(=O)O; Aib = CC(C)(N)C(=O)O
Output: the number by itself.

[
  {
    "compound": "CC(C)C[C@@H]1NC(=O)[C@H](C(C)C)NC(=O)[C@H](CC(C)C)OC(=O)[C@H](CC(C)C)NC(=O)[C@H](Cc2ccccc2)NC1=O [Sansalvamide A, reference compound] (cyclo(FL[Hica(2S)]VL))",
    "val": 0.09
  },
  {
    "compound": "CC(C)C[C@@H]1NC(=O)[C@H](C(C)C)NC(=O)[C@H](CC(C)C)NC(=O)[C@H](CC(C)C)N(C)C(=O)[C@H](Cc2ccccc2)NC1=O [Compound 1b] (cyclo(F[NMeL]LVL))",
    "val": 0.71
  },
  {
    "compound": "CC(C)C[C@@H]1NC(=O)[C@H](C(C)C)NC(=O)[C@H](CC(C)C)N(C)C(=O)[C@H](CC(C)C)NC(=O)[C@H](Cc2ccc(Br)cc2)NC1=O [Compound 1e] (cyclo([Phe(4-Br)]L[NMeL]VL))",
    "val": 0.82
  }
]

Turning now to a further compound:
Exercise: Look up Fold Induction Over DMSO control for this compound: CC(C)C[C@@H]1NC(=O)[C@H](Cc2ccccc2)NC(=O)[C@H](Cc2ccccc2)N(C)C(=O)[C@H](Cc2ccccc2)NC(=O)C(C)(C)NC(=O)[C@H](CC(C)C)N(C)C(=O)[C@@H]2CCCN2C1=O [Scytalidamide A, reference compound] (cyclo(F[NMeF]FLP[NMeL][Aib]))
Key: 0.11

----------
# Tested on: PC-3 (Prostate) human cancer cell line
# run conditions: PC-3, 10 μM, three days
Square brackets hold non-standard residues; d marks the D form. Peptide text beside a SMILES is read from it. Phe(4-Br) = N[C@@H](Cc1ccc(Br)cc1)C(=O)O
The threshold is inclusive: Fold Induction Over DMSO control of exactly 0.7 counts as t; values below receive f.

Exercise: Please tell me: is the compound CC(C)C[C@@H]1NC(=O)[C@H](Cc2ccc(Br)cc2)NC(=O)[C@H](CC(C)C)NC(=O)[C@H](C(C)C)NC(=O)[C@H](CC(C)C)NC1=O [Compound 1a] (cyclo([Phe(4-Br)]LLVL)) at or over 0.7 in terms of Fold Induction Over DMSO control?
Key: t

----------
# System: PC-3 (Prostate) human cancer cell line
# run conditions: PC-3, 1 μM, three days
Square brackets hold non-standard residues; d marks the D form. Peptide text beside a SMILES is read from it. NMePhe(4-Br) = CN[C@@H](Cc1ccc(Br)cc1)C(=O)O; Phe(4-Br) = N[C@@H](Cc1ccc(Br)cc1)C(=O)O; NMeL = CN[C@@H](CC(C)C)C(=O)O
Field 'label' (enum: t / f). Set to t when Fold Induction Over DMSO control is strictly under 0.9; else f.

Field: example entries. Status: answers known.
[
  {
    "compound": "CC(C)C[C@@H]1NC(=O)[C@H](C(C)C)NC(=O)[C@H](CC(C)C)NC(=O)[C@H](CC(C)C)N(C)C(=O)[C@H](Cc2ccc(Br)cc2)NC1=O [Compound 1c] (cyclo([Phe(4-Br)][NMeL]LVL))",
    "study target": "PC-3 (Prostate) human cancer cell line",
    "classification": "t"
  },
  {
    "compound": "CC(C)C[C@@H]1NC(=O)[C@H](Cc2ccc(Br)cc2)NC(=O)[C@H](CC(C)C)NC(=O)[C@H](C(C)C)NC(=O)[C@H](CC(C)C)NC1=O [Compound 1a] (cyclo([Phe(4-Br)]LLVL))",
    "study target": "PC-3 (Prostate) human cancer cell line",
    "classification": "f"
  },
  {
    "compound": "CC(C)C[C@@H]1NC(=O)[C@H](C(C)C)NC(=O)[C@H](CC(C)C)NC(=O)[C@H](CC(C)C)N(C)C(=O)[C@H](Cc2ccccc2)NC1=O [Compound 1b] (cyclo(F[NMeL]LVL))",
    "study target": "PC-3 (Prostate) human cancer cell line",
    "classification": "f"
  },
  {
    "compound": "CC(C)C[C@@H]1NC(=O)[C@H](Cc2ccc(Br)cc2)NC(=O)[C@H](CC(C)C)N(C)C(=O)[C@H](C(C)C)NC(=O)[C@H](CC(C)C)NC1=O [Compound 1i] (cyclo([Phe(4-Br)]LLV[NMeL]))",
    "study target": "PC-3 (Prostate) human cancer cell line",
    "classification": "t"
  },
  {
    "compound": "CC(C)C[C@@H]1NC(=O)[C@H](C(C)C)NC(=O)[C@H](CC(C)C)N(C)C(=O)[C@H](CC(C)C)NC(=O)[C@H](Cc2ccccc2)NC1=O [Compound 1d] (cyclo(FL[NMeL]VL))",
    "study target": "PC-3 (Prostate) human cancer cell line",
    "classification": "t"
  },
  {
    "compound": "CC(C)C[C@@H]1NC(=O)[C@H](CC(C)C)NC(=O)[C@H](Cc2ccc(Br)cc2)N(C)C(=O)[C@H](CC(C)C)NC(=O)[C@H](C(C)C)NC1=O [Compound 1k] (cyclo([NMePhe(4-Br)]LLVL))",
    "study target": "PC-3 (Prostate) human cancer cell line",
    "classification": "f"
  }
]

Exercise: Is 0.9 strictly greater than the compound's reported Fold Induction Over DMSO control? compound: CC(C)C[C@@H]1NC(=O)[C@H](C(C)C)NC(=O)[C@H](CC(C)C)N(C)C(=O)[C@H](CC(C)C)NC(=O)[C@H](Cc2ccc(Br)cc2)NC1=O [Compound 1e] (cyclo([Phe(4-Br)]L[NMeL]VL))
Key: t

Exercise: Would you mind doing CC(C)C[C@@H]1NC(=O)[C@H](Cc2ccccc2)NC(=O)[C@H](CC(C)C)N(C)C(=O)[C@H](C(C)C)NC(=O)[C@H](CC(C)C)NC1=O [Compound 1h] (cyclo(FLLV[NMeL])) as well?
Key: t

Exercise: Would you mind doing CC(C)C[C@@H]1NC(=O)[C@H](Cc2ccccc2)NC(=O)[C@H](CC(C)C)NC(=O)[C@H](C(C)C)NC(=O)[C@H](CC(C)C)NC1=O [Compound 1, sansalvamide A peptide] (cyclo(FLLVL)) as well?
Key: f

# credit: patent US7709443B2
